# PROTOCOL_DETAILS: yeast display, Sf9 membrane polyspecificity reagent, FACS + sequencing; frameworks hold sequencing errors
ASSAY_ENDPOINT: polyreactivity (PSR sort gate)

RESIDUE_CODES | polyreactivity (PSR sort gate)
QVQLVESGGGLVQAGGSLRLSCAASGFTLPLYAMGWYRQAPGKERELVAAISSGGGRTYYADSVKGRFTISRDNAKNTVYLQMNSLKPEDTAVYYCNVDRWWLGWYKFNYWGQGTQVTVSS | high polyreactivity
QVQLVESGGGLLQAGGSLRLSCAASGFILNAYTMGWYRQAPGKERELVATITINGGSTYYADSVKGRFTISRDNAKNTVYLQMNSLKPEDTAVYYCNADYWYKYDYWGQGTQVTVSS | low polyreactivity
QVQLVESGGGLVQAGGSLRLSCAASGSTFFPYAMGWYRQAPGKERELVATINYSGGGTYYADSVKGRFTISRDNAKNTVYLQMNSLKPEDTAVYYCANTLARFDRGYYWGQGTQVTVSS | low polyreactivity
QVQLVESGGGLVQAGGSLRLSCAAYGIIFTWYVMGWYRQAPGKERELVAAISASGASTYYADSVKGRFTISRDNAKNTVYLQMNSLKPEDTAVYYCAARYGWYPVRQPRPGGDYWGQGTQVTVSS | high polyreactivity

Q. Specify polyreactivity (PSR sort gate) for `QVQLVESGGGLVQAGGSLRLRCAASGSIFSGNAMGWYRQAPGKESELVAAISVNGGRTYYADSVKGRFTISRDNAKNTVSLQMNSLKPEDTAVYYCNAVTKVVYHGPYGYDYWGQGTQVTVSS` and stop.
A. high polyreactivity

Q. Assign polyreactivity (PSR sort gate) to the following record: `QVQLVESGGGLVQAGGSLRLSCAASGITFVSNVMGWYRQAPGKEREFVAAITGRGDSTYADSVKGRFTISRDNAKNTVYLQMNSLKPEDTAFYYCNRESDIYSFVAMNYWGQGTQVTVSS`
A. low polyreactivity

Q. Query polyreactivity (PSR sort gate) for `QVQIVESGGGLVQAGGSLRLTCAASGSTFYDYAMGWYRQAPGKERDLVAAITSADSTNYADSVKGRFTISRDNAKNTVYLQMNSLKPEDTAVYYCGQGTQVTVSS`
A. low polyreactivity

Q. Supply polyreactivity (PSR sort gate) value. Item: `QVQLVESGGGLVQAGGSLSLSCADSGLTFRKYAMGWYRQAPGKERELVAAISWSGGSTYYANSVKGRFTISRDNAKNTVYLQMNSLKPEETAVYYCAAVPVHTGSMYWGFTNGYDYWGQGTQVTLSS`
A. low polyreactivity

Q. Identify polyreactivity (PSR sort gate) associated with the sequence `QVQLVESGGGLVQAGGSLRLSCAASGITFQKNAMGWYSQAPGKERELVAGITWRGSTYYADSVKGRFTISRDNAKNTVYLQRNSLKPEDTAVYYCAADPFSWYRSVRGEYWGQGTQVTVSS`
A. low polyreactivity

Q. Return polyreactivity (PSR sort gate) for the following sequence: `QVQLVESGVGLVQAGGSLRLSCAASGFIFYSYAMGWYRQAPGKERELVAAISRSGGITYYADSVKGRFTISRDNAKNTVYLQMNSLKPEDTAVYYCAKVGRGVSSIKDMDSWGQGTQVTVSS`
A. high polyreactivity

Q. Report polyreactivity (PSR sort gate), nothing else, for this sequence: `QVQLVESGGGLVQAGGSLRLSCAASGSTFKVNAMGWYRQAPGKERELVAAISRGGSTYADSVKGRFTISRDNAKNTVYFQINSLKPEDTAVYYCAAKSRYFQPDEYYYWGQGTQVTVSS`
A. high polyreactivity

Q. Output polyreactivity (PSR sort gate) of `QVQLVESGGCLVQAGGSLRLSCAASGRTFNYKAMGWYRQAPGKERELVAAINYSGDSTYYADSVKGRFTISRDNAKNTVYLQMNSLQPEDTAVYYCNADDYWYYYRYGYWGQGTQVTVSS`
A. low polyreactivity

Q. Output measured polyreactivity (PSR sort gate) for this item: `QVQLQESGGGLVQACGSQRLSCAASGSISEGQDMGWYRRAPGKEREFVAGIAPGATTYYADSVKGRFTISRDNAKNTVYLQMNSLKPEDTAVYYCAARSVTETDHDYWGQVTQVTVSS`
A. low polyreactivity
